Molecular target: T1, mouse tenascin-C rCd4-His-FBG (rat; mouse, UniProt P05540 207-392, limits assumed)
T1 construct: domain: domains 3 and 4; C-terminal FBG fusion; biotinylated in the ELISA screen; also called Mu TNC; mouse TNC rCd4-His-FBG; not shown: 6His tag
T1 sequence (chain (part 1 of 2)): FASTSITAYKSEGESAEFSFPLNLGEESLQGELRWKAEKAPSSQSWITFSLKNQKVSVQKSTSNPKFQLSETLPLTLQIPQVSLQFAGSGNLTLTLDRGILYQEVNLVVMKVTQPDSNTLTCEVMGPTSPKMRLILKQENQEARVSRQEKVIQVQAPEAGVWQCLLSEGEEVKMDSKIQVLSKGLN
T1 sequence (chain (part 2 of 2)): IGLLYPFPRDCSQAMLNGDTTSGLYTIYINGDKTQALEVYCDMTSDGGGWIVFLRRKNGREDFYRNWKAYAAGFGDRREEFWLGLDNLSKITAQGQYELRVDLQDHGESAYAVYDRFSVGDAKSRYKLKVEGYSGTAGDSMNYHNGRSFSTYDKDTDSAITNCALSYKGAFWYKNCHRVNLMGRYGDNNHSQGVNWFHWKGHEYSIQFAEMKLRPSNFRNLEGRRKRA
Assay: SPR off-rate screen, captured IgG4 supernatant, 25 C
readout_label: koff (s⁻¹)
Dear colleague, please return just the value in s⁻¹, with no unit written.

binder | u | koff
163_02_D11 human IgG4 (antibody, V domains shown, human IgG4 with hinge S241P; also called Antibody 163 02 D11 (derived from 2A5)) VH: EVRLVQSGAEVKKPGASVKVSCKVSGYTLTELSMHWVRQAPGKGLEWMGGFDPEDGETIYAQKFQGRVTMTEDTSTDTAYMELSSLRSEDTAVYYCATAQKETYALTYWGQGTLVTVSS VL: DIQMTQSPASLPTSVGDRVTITCRASQYIQGFLNWYQQKPGKAPRLLIYAASTLQDGVPSRFSGSGYGTDFTLTISSLQPEDFATYYCLHHYKSPWTFGQGTKVEIKR | s⁻¹ | 0.00098
160_01_A4 human IgG4 (antibody, V domains shown, human IgG4 with hinge S241P; also called Antibody 160 01 A4 (derived from 2A5)) VH: EVRLVQSGAEVKKPGASVKVSCKVSGYTLTELSMHWVRQAPGKGLEWMGGFDPEDGETIYAQKFQGRVTMTEDTSTDTAYMELSSLRSEDTAVYYCATAQKETLGNAIWGQGTLVTVSS VL: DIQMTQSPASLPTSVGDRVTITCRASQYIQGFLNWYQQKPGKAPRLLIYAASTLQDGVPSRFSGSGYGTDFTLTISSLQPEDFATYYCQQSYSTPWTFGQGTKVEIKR | s⁻¹ | 5.9e-06

Prompt: Determine its reported koff: 165_13_C3 human IgG4 (antibody, V domains shown, also called IgG4 C3; C3 IgG4 MAb) VH: QVQLVESGGGLVQPGRSLRLSCAASGFTFDDYAMHWVRQAPGKGLEWVSGISGSGGSTYYADSVKGRFTISRDNAKNSLYLQMNSLRAEDTALYYCAKSYQSDEDAFDIWGQGTMVTVSS VL: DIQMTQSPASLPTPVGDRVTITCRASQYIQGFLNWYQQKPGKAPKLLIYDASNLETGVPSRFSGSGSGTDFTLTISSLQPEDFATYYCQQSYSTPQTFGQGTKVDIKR
Completion: 3.3e-06
